EXPERIMENTAL_TARGET: UniProtKB P27487
QUANTITY_KIND: IC50 (µM)
The reply should be a number in µM, with the unit left off.

{"SMI": "N[C@@H](CCCCNC(=O)OCc1ccccc1)C(=O)N1Cc2ccccc2C1", "EXPERIMENTAL_TARGET": "UniProtKB P27487", "UNIT_LABEL": "µM", "IC50": 245}

Attention now turns to another entry.
The recorded IC50 for "NCCCC[C@H](N)C(=O)N1Cc2ccccc2C1" is 161

----------
Data export: pIC50 values recorded with Dipeptidyl peptidase 2 (Homo sapiens, UniProt Q9UHL4).
pIC50: −log10 of the molar value.

The recorded pIC50 for "CC[C@H](C)[C@H](N)C(=O)N1Cc2ccc([N+](=O)[O-])cc2C1" is 4.18

The recorded pIC50 for "O=C([C@@H]1C[C@H](N(c2ccc3ccccc3c2)c2ccc3ccccc3c2)CN1)N1Cc2ccccc2C1" is < 4.00

----------
EXPERIMENTAL_TARGET: Dipeptidyl peptidase 4 (Homo sapiens, UniProt P27487)
Sequence (P27487 whole entry): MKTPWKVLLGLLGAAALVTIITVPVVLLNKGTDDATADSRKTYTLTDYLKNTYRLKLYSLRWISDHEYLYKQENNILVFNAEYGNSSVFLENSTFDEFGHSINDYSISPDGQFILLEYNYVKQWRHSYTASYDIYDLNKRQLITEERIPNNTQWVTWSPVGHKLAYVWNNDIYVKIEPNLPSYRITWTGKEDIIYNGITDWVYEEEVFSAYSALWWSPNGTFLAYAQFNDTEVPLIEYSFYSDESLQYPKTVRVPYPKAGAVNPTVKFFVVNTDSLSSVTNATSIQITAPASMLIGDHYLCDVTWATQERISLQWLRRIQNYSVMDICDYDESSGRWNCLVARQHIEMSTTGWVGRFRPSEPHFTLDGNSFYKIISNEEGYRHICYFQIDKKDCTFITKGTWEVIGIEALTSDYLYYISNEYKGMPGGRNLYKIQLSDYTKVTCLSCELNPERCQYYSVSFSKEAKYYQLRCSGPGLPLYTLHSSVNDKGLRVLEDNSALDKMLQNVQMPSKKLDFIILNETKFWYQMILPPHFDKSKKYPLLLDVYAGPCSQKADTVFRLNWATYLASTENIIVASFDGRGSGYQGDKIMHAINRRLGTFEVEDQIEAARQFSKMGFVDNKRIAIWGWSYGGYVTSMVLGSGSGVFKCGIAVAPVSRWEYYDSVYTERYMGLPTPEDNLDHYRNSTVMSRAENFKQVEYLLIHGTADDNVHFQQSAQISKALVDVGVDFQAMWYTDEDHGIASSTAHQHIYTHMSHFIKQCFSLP
Measured IC50 values are reported for all entries that follow.

Answered cases to consult:
{"SMI": "CC[C@H](C)[C@H](N)C(=O)N1Cc2ccc(C(C)(C)C)cc2C1", "QUANTITY_KIND": "IC50", "ASSAY_VALUE": "> 100 µM"}
{"SMI": "N[C@@H](CCCCNCc1ccccc1)C(=O)N1Cc2ccccc2C1", "QUANTITY_KIND": "IC50", "ASSAY_VALUE": "> 50 µM"}
{"SMI": "O=C([C@@H]1C[C@H](Nc2cccc3ccccc23)CN1)N1Cc2ccccc2C1", "QUANTITY_KIND": "IC50", "ASSAY_VALUE": "4.97 µM"}
{"SMI": "CC[C@@H](C)[C@H](N)C(=O)N1Cc2ccc(C)cc2C1", "QUANTITY_KIND": "IC50", "ASSAY_VALUE": "> 100 µM"}

The recorded IC50 for "N[C@@H](CCCCNc1ccc2ccccc2c1)C(=O)N1Cc2ccccc2C1" is 178 µM

The recorded IC50 for "O=C([C@@H]1C[C@@H](NCc2ccccc2)CN1)N1Cc2ccccc2C1" is > 1000 µM

----------
pIC50: −log10 of the molar value.
Data export: pIC50 values recorded with Dipeptidyl peptidase 8 (Homo sapiens).
Sequence (Q6V1X1 whole entry): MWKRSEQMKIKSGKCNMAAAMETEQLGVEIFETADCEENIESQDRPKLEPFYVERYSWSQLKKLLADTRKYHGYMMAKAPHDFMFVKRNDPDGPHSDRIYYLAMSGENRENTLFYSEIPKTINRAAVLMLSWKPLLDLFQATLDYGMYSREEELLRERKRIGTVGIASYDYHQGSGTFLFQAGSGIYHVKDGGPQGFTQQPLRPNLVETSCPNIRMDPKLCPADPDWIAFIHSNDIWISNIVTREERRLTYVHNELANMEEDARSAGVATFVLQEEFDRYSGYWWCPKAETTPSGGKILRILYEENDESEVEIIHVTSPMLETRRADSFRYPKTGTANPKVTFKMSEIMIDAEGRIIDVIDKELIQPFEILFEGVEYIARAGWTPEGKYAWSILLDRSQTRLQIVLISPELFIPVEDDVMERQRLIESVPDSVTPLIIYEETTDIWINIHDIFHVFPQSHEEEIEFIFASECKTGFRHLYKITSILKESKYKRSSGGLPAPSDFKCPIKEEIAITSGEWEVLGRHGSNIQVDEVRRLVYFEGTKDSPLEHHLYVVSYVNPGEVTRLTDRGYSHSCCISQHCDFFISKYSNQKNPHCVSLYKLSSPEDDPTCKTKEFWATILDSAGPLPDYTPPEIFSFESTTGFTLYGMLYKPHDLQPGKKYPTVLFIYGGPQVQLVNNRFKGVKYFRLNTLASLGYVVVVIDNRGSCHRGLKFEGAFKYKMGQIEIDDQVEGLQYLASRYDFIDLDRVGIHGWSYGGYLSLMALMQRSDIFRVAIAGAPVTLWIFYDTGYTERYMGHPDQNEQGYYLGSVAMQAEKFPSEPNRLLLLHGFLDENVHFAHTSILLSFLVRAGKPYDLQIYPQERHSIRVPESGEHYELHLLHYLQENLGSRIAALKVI

{"SMI": "CC[C@H](C)[C@H](N)C(=O)N1Cc2ccc(N=[N+]=[N-])cc2C1", "pIC50": "< 4.00"}
{"SMI": "CC[C@H](C)[C@H](N)C(=O)N1Cc2ccc([N+](=O)[O-])cc2C1", "pIC50": "< 4.30"}

Entry "CC[C@H](C)[C@H](N)C(=O)N1Cc2ccc(C(C)(C)C)cc2C1" , Dipeptidyl peptidase 8 (Homo sapiens) data, pIC50 value: < 4.00

Entry "CC[C@H](C)[C@H](N)C(=O)N1Cc2cccc(C)c2C1" , Dipeptidyl peptidase 8 (Homo sapiens) data, pIC50 value: < 4.00

----------
EXPERIMENTAL_TARGET: Dipeptidyl peptidase 9 (Homo sapiens, UniProt Q86TI2)
Sequence (Q86TI2 whole entry): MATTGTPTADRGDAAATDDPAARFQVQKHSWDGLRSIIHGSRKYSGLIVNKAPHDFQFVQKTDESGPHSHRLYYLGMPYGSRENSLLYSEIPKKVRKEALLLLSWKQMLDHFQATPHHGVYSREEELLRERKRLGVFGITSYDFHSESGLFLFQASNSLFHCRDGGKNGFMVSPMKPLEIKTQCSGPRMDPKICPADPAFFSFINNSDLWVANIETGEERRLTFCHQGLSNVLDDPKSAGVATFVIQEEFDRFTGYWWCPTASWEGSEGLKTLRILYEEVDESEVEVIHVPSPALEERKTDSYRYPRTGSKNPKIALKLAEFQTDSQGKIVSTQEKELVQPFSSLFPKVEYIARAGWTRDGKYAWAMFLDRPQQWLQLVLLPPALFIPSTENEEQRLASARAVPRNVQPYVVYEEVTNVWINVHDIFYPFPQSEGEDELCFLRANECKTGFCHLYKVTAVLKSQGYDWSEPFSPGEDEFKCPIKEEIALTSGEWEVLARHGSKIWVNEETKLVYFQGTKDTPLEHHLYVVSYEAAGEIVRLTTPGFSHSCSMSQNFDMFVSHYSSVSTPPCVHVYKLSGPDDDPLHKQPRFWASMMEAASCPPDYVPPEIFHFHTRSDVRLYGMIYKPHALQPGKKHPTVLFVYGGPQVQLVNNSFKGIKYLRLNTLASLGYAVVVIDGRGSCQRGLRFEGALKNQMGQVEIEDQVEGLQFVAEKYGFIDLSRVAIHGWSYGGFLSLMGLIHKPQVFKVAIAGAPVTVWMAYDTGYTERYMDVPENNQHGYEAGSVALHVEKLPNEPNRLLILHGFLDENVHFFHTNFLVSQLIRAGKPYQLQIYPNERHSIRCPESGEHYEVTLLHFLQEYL
pIC50: −log10 of the molar value.
Measured pIC50 values are reported for all entries that follow.

Answered cases to consult:
{"SMI": "O=C([C@@H]1C[C@@H](N(Cc2ccccc2)Cc2ccccc2)CN1)N1Cc2ccccc2C1", "ASSAY_VALUE": "< 4.60"}
{"SMI": "CC[C@@H](C)[C@H](N)C(=O)N1Cc2ccc(C(F)(F)F)cc2C1", "ASSAY_VALUE": "< 4.00"}

Attention now turns to another entry.
The recorded pIC50 for "CC[C@H](C)[C@H](N)C(=O)N1Cc2ccc([N+](=O)[O-])cc2C1" is < 4.60

----------
Data export: pIC50 values recorded with Dipeptidyl peptidase 2 (Homo sapiens, UniProt Q9UHL4).
pIC50: −log10 of the molar value.

Answered cases to consult:
{"SMI": "CC[C@H](C)[C@H](N)C(=O)N1Cc2cccnc2C1", "ASSAY_VALUE": "< 4.00"}
{"SMI": "CC[C@H](C)[C@H](N)C(=O)N1Cc2cccc(C)c2C1", "ASSAY_VALUE": "< 4.00"}
{"SMI": "CC[C@@H](C)[C@H](N)C(=O)N1Cc2ccc(C(F)(F)F)cc2C1", "ASSAY_VALUE": 4.90}

Entry "CC[C@H](C)[C@H](N)C(=O)N1Cc2ccc(C(C)(C)C)cc2C1" , Dipeptidyl peptidase 2 (Homo sapiens, UniProt Q9UHL4) data, pIC50 value: < 4.00

Every entry's value here was drawn from ChEMBL document CHEMBL1154996.
